test: Stability study of levorotatory enantiomer of compounds in solvent (MCT); type: physicochemical; conditions: dextrorotatory form, MCT solution, 60° C., day 0
Reported Isomer (%) values follow for various compounds
outcome-measure: Isomer (%)

# compound, result
records = [
    ("CC(C)OC(=O)OC(C)OC(=O)[C@H]1CCn2c(C(=O)c3ccccc3)ccc21 (stereo partly drawn) [N2(S)]", "5.65%"),
    ("CCOC(=O)OC(CC)OC(=O)[C@H]1CCn2c(C(=O)c3ccccc3)ccc21 (stereo partly drawn) [N15(S)]", "4.59%"),
    ("CCC(OC(=O)OC(C)C)OC(=O)[C@H]1CCn2c(C(=O)c3ccccc3)ccc21 (stereo partly drawn) [N16(S)]", "2.46%"),
    ("CCOC(=O)OC(C)OC(=O)[C@H]1CCn2c(C(=O)c3ccccc3)ccc21 (stereo partly drawn) [N12(S)]", "3.01%"),
]

----------
Measured Content of the compound % by item
settings: human, 60 min, 97.6 µM

# molecule, unit-name, Content of the compound %
records = [
    ("CCOC(=O)OC(CC)OC(=O)C1CCn2c(C(=O)c3ccccc3)ccc21 (stereo not shown) [N15]", "%", 12.760),
    ("CCC(OC(=O)OC(C)C)OC(=O)C1CCn2c(C(=O)c3ccccc3)ccc21 (stereo not shown) [N16]", "%", 35.437),
    ("CCCCCCCCOC(=O)OC(C)OC(=O)C1CCn2c(C(=O)c3ccccc3)ccc21 (stereo not shown) [N26]", "%", 89.20),
    ("CCOC(=O)OC(C)OC(=O)C1CCn2c(C(=O)c3ccccc3)ccc21 (stereo not shown) [N12]", "%", 5.997),
    ("CC(C)OC(=O)C1CCn2c(C(=O)c3ccccc3)ccc21 (stereo not shown) [N11, reference compound]", "%", 83.490),
    ("CC(C)OC(=O)OC(C)OC(=O)C1CCn2c(C(=O)c3ccccc3)ccc21 (stereo not shown) [N2]", "%", 47.510),
    ("CCC(=O)OC(CC)OC(=O)C1CCn2c(C(=O)c3ccccc3)ccc21 (stereo not shown) [N8]", "%", 8.777),
]

----------
Catalogue of Content of the compound % readings, one per entry.
settings: human, 30 min, 97.6 µM
outcome-measure: Content of the compound % (%)

# compound, unit-name, numeric-value
rows = [
    ("CC(C)OC(=O)OC(C)OC(=O)C1CCn2c(C(=O)c3ccccc3)ccc21 (stereo not shown)", "%", 72.813),
    ("CCC(=O)OC(CC)OC(=O)C1CCn2c(C(=O)c3ccccc3)ccc21 (stereo not shown)", "%", 42.467),
    ("CCC(OC(=O)OC(C)C)OC(=O)C1CCn2c(C(=O)c3ccccc3)ccc21 (stereo not shown)", "%", 65.987),
    ("CCOC(=O)OC(CC)OC(=O)C1CCn2c(C(=O)c3ccccc3)ccc21 (stereo not shown)", "%", 46.680),
    ("CCCCCCCCOC(=O)OC(C)OC(=O)C1CCn2c(C(=O)c3ccccc3)ccc21 (stereo not shown)", "%", 95.48),
    ("CC(C)OC(=O)C1CCn2c(C(=O)c3ccccc3)ccc21 (stereo not shown) [N11, reference compound]", "%", 89.807),
    ("CCOC(=O)OC(C)OC(=O)C1CCn2c(C(=O)c3ccccc3)ccc21 (stereo not shown)", "%", 25.590),
]

----------
experiment: Stability study of levorotatory enantiomer of compounds in solvent (MCT); assay type: physicochemical; settings: MCT solution, 5° C., Day 15

# molecule, Purity (%)
records = [
    ("CCC(OC(=O)OC(C)C)OC(=O)[C@H]1CCn2c(C(=O)c3ccccc3)ccc21 (stereo partly drawn) [N16(S)]", 99.65),
    ("CCOC(=O)OC(C)OC(=O)[C@H]1CCn2c(C(=O)c3ccccc3)ccc21 (stereo partly drawn) [N12(S)]", 99.64),
    ("CCOC(=O)OC(CC)OC(=O)[C@H]1CCn2c(C(=O)c3ccccc3)ccc21 (stereo partly drawn) [N15(S)]", 99.45),
    ("CC(C)OC(=O)OC(C)OC(=O)[C@H]1CCn2c(C(=O)c3ccccc3)ccc21 (stereo partly drawn) [N2(S)]", 99.18),
]

----------
# Ketorolac (%) per record follows
experiment: Stability study of levorotatory enantiomer of compounds in solvent (MCT); assay type: physicochemical; conditions: MCT solution, 5° C., Day 30

# molecule, Ketorolac (%)
records = [
    ("CCOC(=O)OC(CC)OC(=O)[C@H]1CCn2c(C(=O)c3ccccc3)ccc21 (stereo partly drawn) [N15(S)]", "0.03%"),
    ("CC(C)OC(=O)OC(C)OC(=O)[C@H]1CCn2c(C(=O)c3ccccc3)ccc21 (stereo partly drawn) [N2(S)]", "0.25%"),
    ("CCOC(=O)OC(C)OC(=O)[C@H]1CCn2c(C(=O)c3ccccc3)ccc21 (stereo partly drawn) [N12(S)]", "0.03%"),
    ("CCC(OC(=O)OC(C)C)OC(=O)[C@H]1CCn2c(C(=O)c3ccccc3)ccc21 (stereo partly drawn) [N16(S)]", "0.03%"),
]

----------
Experiment: Stability study of levorotatory enantiomer of compounds in solvent (MCT)
Type: physicochemical
Details: MCT solution, 5° C., day 0
Procedure: 2. Test method: the samples were prepared according to Table 2, wherein each sample was dispensed into 10 vials according to the lofting volume, and the samples were lofted according to Table 3. 4. The related substance was determined according to high performance liquid chromatography (General Chapter 0512, China Pharmacopoeia, 2015 Edition). […]

# compound, Ketorolac (%)
rows = [
    ("CC(C)OC(=O)OC(C)OC(=O)[C@H]1CCn2c(C(=O)c3ccccc3)ccc21 (stereo partly drawn) [N2(S)]", 0.16),
    ("CCOC(=O)OC(C)OC(=O)[C@H]1CCn2c(C(=O)c3ccccc3)ccc21 (stereo partly drawn) [N12(S)]", 0.02),
    ("CCOC(=O)OC(CC)OC(=O)[C@H]1CCn2c(C(=O)c3ccccc3)ccc21 (stereo partly drawn) [N15(S)]", 0.03),
    ("CCC(OC(=O)OC(C)C)OC(=O)[C@H]1CCn2c(C(=O)c3ccccc3)ccc21 (stereo partly drawn) [N16(S)]", 0.02),
]

----------
Ketorolac (%) values by entry
experiment: Stability study of levorotatory enantiomer of compounds in solvent (MCT); format: physicochemical; conditions: MCT solution, 5° C., Day 15

# molecule, Ketorolac (%)
measured = [
    ("CCOC(=O)OC(CC)OC(=O)[C@H]1CCn2c(C(=O)c3ccccc3)ccc21 (stereo partly drawn) [N15(S)]", 0.02),
    ("CCOC(=O)OC(C)OC(=O)[C@H]1CCn2c(C(=O)c3ccccc3)ccc21 (stereo partly drawn) [N12(S)]", 0.02),
    ("CC(C)OC(=O)OC(C)OC(=O)[C@H]1CCn2c(C(=O)c3ccccc3)ccc21 (stereo partly drawn) [N2(S)]", 0.14),
    ("CCC(OC(=O)OC(C)C)OC(=O)[C@H]1CCn2c(C(=O)c3ccccc3)ccc21 (stereo partly drawn) [N16(S)]", 0.02),
]

----------
In this section we review reported Purity (%) values for a set of compounds.
test: Stability study of levorotatory enantiomer of compounds in solvent (MCT); type: physicochemical; details: MCT solution, 25° C., day 0

# compound, unit-name, Purity (%)
measured = [
    ("CCOC(=O)OC(C)OC(=O)[C@H]1CCn2c(C(=O)c3ccccc3)ccc21 (stereo partly drawn) [N12(S)]", "%", 99.65),
    ("CCOC(=O)OC(CC)OC(=O)[C@H]1CCn2c(C(=O)c3ccccc3)ccc21 (stereo partly drawn) [N15(S)]", "%", 99.48),
    ("CCC(OC(=O)OC(C)C)OC(=O)[C@H]1CCn2c(C(=O)c3ccccc3)ccc21 (stereo partly drawn) [N16(S)]", "%", 99.71),
    ("CC(C)OC(=O)OC(C)OC(=O)[C@H]1CCn2c(C(=O)c3ccccc3)ccc21 (stereo partly drawn) [N2(S)]", "%", 99.14),
]

----------
Measured Ketorolac (%) accompanies every entry in the list below.
test: Stability study of levorotatory enantiomer of compounds in solvent (MCT); assay type: physicochemical; details: MCT solution, 60° C., day 0
outcome-measure: Ketorolac (%)

# molecule, unit-name, numeric-value
data = [
    ("CCOC(=O)OC(CC)OC(=O)[C@H]1CCn2c(C(=O)c3ccccc3)ccc21 (stereo partly drawn) [N15(S)]", "%", 0.03),
    ("CCOC(=O)OC(C)OC(=O)[C@H]1CCn2c(C(=O)c3ccccc3)ccc21 (stereo partly drawn) [N12(S)]", "%", 0.02),
    ("CC(C)OC(=O)OC(C)OC(=O)[C@H]1CCn2c(C(=O)c3ccccc3)ccc21 (stereo partly drawn) [N2(S)]", "%", 0.16),
    ("CCC(OC(=O)OC(C)C)OC(=O)[C@H]1CCn2c(C(=O)c3ccccc3)ccc21 (stereo partly drawn) [N16(S)]", "%", 0.02),
]
